Measured values drawn from PubChem BioAssay for this set.

measurement_description: probe aNog binding to arrayed compounds – biochemical, biotinylated probe, 635/667 nm fluorescence, primary screen (AID 1115);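 also: probe is biotinylated aNog protein used at 0.15 µg/mL for 1 h at 4 C; z-score combines 667 nm fluorescence of each spot with its signal to noise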
assay_conditions: small-molecule microarray, higher = more signal
readout_type: composite z-score
Response field accepts a number only; no unit should be typed.

molecule	composite z-score
NC(=O)N1C(=O)C2C(C1=O)C1C=C(CCCO)C2C(c2ccc(CN3CCCC3)cc2)N1Cc1sc2ccccc2c1Cl (configuration not stated)	-0.342
COC(=O)C(CC#Cc1ccc2c(c1)[C@]1(C(=O)N2)[C@H](C(=O)NC[C@H](O)c2ccccc2)[C@H]2C(=O)O[C@H](c3ccccc3)[C@H](c3ccccc3)N2[C@@H]1c1ccccc1OCCO)C(=O)OC	0.149
C=C(CCCC)/C(=C/C[C@H](OC(=O)c1ccncc1)c1ccccc1OCCO)c1cc(C(=O)OC)ccc1OC	-0.305

Would you kindly share the measured composite z-score for CC(C)=CCCC(C)=CC(O)C1C=CC2C(=O)NC(=O)C2N1Nc1ccc(Cl)cc1Cl (configuration not stated) ? 1.5

Also check CCCc1cc2c(n1CCc1ccc(Cl)cc1)C(C)C1CN(C(=O)c3ccccc3)C(C)(C(=O)OC)C21 (configuration not stated) 1.24

Also check COC(=O)[C@@]1(Cc2ccccc2)[C@H]2c3cc(C(=O)N(C)C)n(Cc4ccc(C(F)(F)F)nc4)c3C[C@H]2CN1C(=O)c1ccccc1 2.05

Also check CC[C@@H]1C=C(C(=O)O)[C@H](c2ccc(OC)cc2)N1S(=O)(=O)c1ccc(C)cc1 -0.209
